Origin of measurements: ChEMBL document CHEMBL4513216

test: Toxicity liver stage against HepG2, at 10uM; assay type: cell-based; design: test concentration 10 uM, cell line HepG2-A16-CD81EGFP; conditions: human, HepG2-A16-CD81EGFP cells; read-out: INHIBITION
Items are presented alongside their recorded cytotoxicity at 10 µM.
The response must be a number in % with no trailing unit.

Solved cases below.
> print(dat)
                                   compound  observedmeasurement
1      Cc1nc(-c2ccccc2)sc1C(=O)NCCNc1ncccn1                0.273
2  CC(c1nccs1)n1cc(-c2cc(CN3CCCCC3)cs2)nn1 (stereo not drawn)                 1.22
3  CN1C[C@@H](C(=O)N(C)C)[C@@]2(CCc3ccccc3C(=O)N2)C1                  1.2
4  CCC(CNC(=O)c1ccco1)N1CCc2ccccc2C1 (stereo not drawn)                 18.3

Ask: Entry `COCCN1C[C@H]2[C@@H](C1)N(C(=O)c1cccs1)CC[C@H]2OC` : reported cytotoxicity at 10 µM = ?
Result: -2.03

Ask: GET /values?readout=cytotoxicity at 10 µM&item= `CC(=O)N1C[C@H]2CC[C@@H](C1)N(S(=O)(=O)c1ccc(C#N)cc1Cl)C2`
Result: 1.33

Ask: Give its cytotoxicity at 10 µM value. Item: Cn1cnnc1C1CCCN(C(=O)c2ccc3c(c2)OCCO3)C1 (stereo not drawn)
Result: -11

Ask: So what does the record say about cytotoxicity at 10 µM for CCOCC1CN(CCN(C)C)Cc2cnn(CC3CCCC3)c21 (stereo not drawn) ?
Result: 5.77

Ask: Any idea what cytotoxicity at 10 µM was measured for `Cc1cc(C(N)=O)ccc1NC(=O)c1nc(N2CCCC2)ncc1Cl` ?
Result: -8.94

Ask: # input compound: `O=C([C@@H]1CC[C@@H]2[C@@H](CCN2Cc2ccncc2)O1)N1CCCCO1` ; wanted: its cytotoxicity at 10 µM
Result: -3.75

Ask: Could you share which cytotoxicity at 10 µM value was measured for `O=C1[C@H]2CN(Cc3ccncc3)C[C@H]2CN1c1ccsc1` ?
Result: -81.1

Ask: Record request: cytotoxicity at 10 µM value, item `NCCc1n[nH]c(=O)n1-c1cccc(Cl)c1Cl`
Result: -2.38

Ask: Could you share which cytotoxicity at 10 µM value was measured for `CC(C)(C)NC(=O)N1CCCn2nc(C(=O)Nc3ccccc3)cc2C1` ?
Result: 8.88

Ask: Look at this compound and give its reported cytotoxicity at 10 µM. `Cn1cc(-c2c(C#N)c(N)nc3c2CCc2[nH]ccc2-3)cc1C#N`
Result: -1.68
